- Protocol: Retention time of the compound in 30 to 100% ACN/Water/0.1%TFA by RP-HPLC analysis
- Type: physicochemical
- Condition context: buffer
Readout name: Retention time (min)
# unit: min | format: bare number

Qu. Suppose we examine the molecule O=C(O)/C(Cc1ccc(C(=O)O)cc1[N+](=O)[O-])=N\Nc1nc(-c2ccc(Cl)c(Cl)c2)cs1 ; what Retention time value has been reported?
Ans. 12.5

----------
- Protocol: Retention time of the compound in 50 to 100% ACN/Water/0.1%TFA by RP-HPLC analysis
- Assay type: physicochemical
- Condition context: buffer
Readout name: Retention_time (min)
Kindly provide the numeric value in min only, without the unit symbol.

>>> df
                               entry_smiles    readout_name  unit  readout_number
0  O=C(O)/C(Cc1ccc(C(=O)O)cc1)=N/Nc1nc(-c2ccc(Cl)c(Cl)c2)cs1  Retention_time   min            5.62

Qu. Using the record for COc1ccc(C/C(=N/Nc2nc(-c3ccc(Cl)c(Cl)c3)cs2)C(=O)O)cc1[N+](=O)[O-] , report its Retention_time.
Ans. 10.68

Qu. How about O=C(O)/C(Cc1ccccc1[N+](=O)[O-])=N\Nc1nc(-c2ccc(N3CCOCC3)cc2)cs1 ?
Ans. 12.32

Qu. Try the molecule O=C(O)/C(Cc1cccc([N+](=O)[O-])c1)=N\Nc1nc(-c2ccc(Cl)c(Cl)c2)cs1
Ans. 8.36

Qu. // same read-out, input: O=C(O)/C(Cc1ccccc1[N+](=O)[O-])=N\Nc1nc(-c2ccc3ccccc3c2)cs1
Ans. 5.899

Qu. O=C(O)/C(Cc1ccc(F)cc1)=N/Nc1nc(-c2ccc(Cl)c(Cl)c2)cs1 , same question.
Ans. 7.47

Qu. Please do the same for O=C(O)/C(Cc1cccc([N+](=O)[O-])c1)=N/Nc1nc(-c2ccc(Cl)c(Cl)c2)cs1 as well.
Ans. 7.19
